Reference source: patent US9695155B2

Plant response rating (0 to 100), Crabgrass, Large values by entry
system: large (Lg) crabgrass; experiment: Test C postemergence; type: in vivo, Digitaria sanguinalis; conditions: 16 g ai/ha, postemergence; 0 is no effect, 100 is complete control
I'd appreciate a reply containing only the number, no unit.

Examples with their reported Plant response rating (0 to 100), Crabgrass, Large follow.
1. Clc1cnc(Oc2ccccc2-n2cc(I)nn2)nc1 5
2. FCc1cccc(Oc2ncc(F)cn2)c1-n1cc(I)cn1 5

stdin: Request the reported Plant response rating (0 to 100), Crabgrass, Large associated with `N#Cc1cnn(-c2c(Br)cccc2Oc2ncc(Cl)cn2)c1`
stdout: 10

stdin: Which Plant response rating (0 to 100), Crabgrass, Large value belongs to `FC(F)c1cnn(-c2c(Cl)cccc2Oc2ncc(Cl)cn2)c1` ?
stdout: 5

stdin: Returns the measured Plant response rating (0 to 100), Crabgrass, Large for the input compound. Input: `FC(F)c1cccc(Oc2ncc(Br)cn2)c1-n1cc(C(F)(F)F)cn1`
stdout: 5

stdin: // returns reported Plant response rating (0 to 100), Crabgrass, Large for input `Clc1cnc(Oc2cccc(Cl)c2-n2cc(Cl)cn2)nc1`
stdout: 5

stdin: Which Plant response rating (0 to 100), Crabgrass, Large is reported for this compound? `N#Cc1cnn(-c2c(Oc3ncc(F)cn3)cccc2C(F)F)c1`
stdout: 10

stdin: Dear colleague, I am looking for the recorded Plant response rating (0 to 100), Crabgrass, Large of the following compound: `Clc1cnc(Oc2ccccc2-n2cc(Br)nn2)nc1`
stdout: 5

stdin: Data request, read-out Plant response rating (0 to 100), Crabgrass, Large, for `FC(F)c1cnn(-c2c(Br)cccc2Oc2ncc(Cl)cn2)c1`
stdout: 5

stdin: Plant response rating (0 to 100), Crabgrass, Large for `FCc1cn(-c2ccccc2Oc2ncc(Cl)cn2)nn1` ?
stdout: 0
